Tested System: HIV reverse transcriptase (Human immunodeficiency virus type 1 group M subtype B, UniProt P03366)
Method Description: HIV RT inhibition, fluorescent EnzChek/PicoGreen assay
Quantity Kind: pEC50
Scale for pEC50: -log10 of concentration given in mol/L; no unit attached.

Request: Supply measured pEC50 of N#C/C=C/c1ccc2c(S(=O)(=O)n3nc(Nc4ccc(C#N)c(Cl)c4)nc3N)cccc2c1 [compound 12126065] in your reply.
Result: 6.64

Request: Supply measured pEC50 of N#Cc1ccc2c(S(=O)(=O)n3nc(Nc4ccc(C#N)c(C#N)c4)nc3N)cccc2c1 [compound 12126055] in your reply.
Result: 6.46

Request: Supply measured pEC50 of Nc1nc(Nc2ccc(Cl)cc2)nn1S(=O)(=O)c1ccc2ccccc2c1 [compound 11626007] in your reply.
Result: 6.55

Request: Supply measured pEC50 of N#Cc1ccc(Nc2nc(N)n(S(=O)(=O)c3cccc4cc(C#N)ccc34)n2)cc1 [compound 11726152] in your reply.
Result: 6.15

Request: Supply measured pEC50 of Cc1cc(/C=C/C#N)cc(C)c1Nc1ccnc(Nc2ccc(C#N)cc2)n1 [RPV, rilpivirine] in your reply.
Result: 6.80

====

Method Description: Single-dose pharmacokinetics in mice
Assay Context: male, Balb/C, mouse, plasma, po, 250 mg/kg
Quantity Kind: half-life (h)
Provide the reading as a plain figure in h.

Request: Supply measured half-life of N#C/C=C/c1ccc2c(S(=O)(=O)n3nc(Nc4ccc(C#N)c(Cl)c4)nc3N)cccc2c1 [compound 12126065] in your reply.
Result: 7.7
